Origin of the recorded values: patent US7868006B2

Molecular target: human CXCR3 (N-delta 4) (Homo sapiens)
Construct: CD8 leader (N); Flag tag (N); expressed in transfected cells; host or cells: mouse pro-B Ba/F3 cells, stably transfected with pME18Sneo-hCXCR3 (N-delta 4); membrane preparation
Sequence (P49682 5-368 limits assumed): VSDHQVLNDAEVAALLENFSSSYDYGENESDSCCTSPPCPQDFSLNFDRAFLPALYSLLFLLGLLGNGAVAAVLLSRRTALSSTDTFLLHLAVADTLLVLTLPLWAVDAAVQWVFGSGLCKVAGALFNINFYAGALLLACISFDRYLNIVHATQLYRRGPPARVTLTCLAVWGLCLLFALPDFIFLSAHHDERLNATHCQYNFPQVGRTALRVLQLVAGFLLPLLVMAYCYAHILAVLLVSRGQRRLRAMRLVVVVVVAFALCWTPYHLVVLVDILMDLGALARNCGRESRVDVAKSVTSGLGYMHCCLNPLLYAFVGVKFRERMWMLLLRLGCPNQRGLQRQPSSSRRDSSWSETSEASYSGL
Test: Human CXCR3 (N-delta 4) Scintillation Proximity Assay (SPA), [125I] IP-10 binding
Conditions: Ba/F3-hCXCR3 (N-delta 4) membranes, 25 pM [125I] IP-10; read-out: IC50 value
Excerpt: The inventive compounds can readily be evaluated to determine activity at The CXCR3 receptors by known methods, such as, for example, Development of Human CXCR3 (N-delta 4) Binding Assay. Cloning and Expression of Human CXCR3 (N-delta 4): The DNA encoding human CXCR3 was cloned by PCR using human genomic DNA (Promega, Madison, Wis.) as a template. […]
pIC50: −log10 of the molar value.
assay endpoint: pIC50

INSERT INTO assay_data (molecule, assayed_target, experimental_value) VALUES
  ('CC[C@H]1CN(c2nc(N)c(-c3nnc(C)o3)nc2Cl)CCN1C1CCN(Cc2ccc(Cl)cc2/C(N)=N\O)CC1 [Compound 1]', 'human CXCR3 (N-delta 4) (Homo sapiens)', 9.70);
